assay-target: MAGI2_6, Q86UL8
Sequence (Q86UL8 1141-1229): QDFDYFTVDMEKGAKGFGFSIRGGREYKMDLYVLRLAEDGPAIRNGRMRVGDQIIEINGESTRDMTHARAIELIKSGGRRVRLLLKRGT
test: holdup assay
Design: key: below the threshold = too weak to quantify, mostly under pKd 3.1 to 4
measurement-setup: plain residues with an end cap or a label only (N-terminal biotin on a linker: ado-ado)

binder	pKd
SQDPKKPSRV [CBY2, Q8NA61]	below the threshold
NKSEPFLTWL [WWTR1, Q9GZV5]	4.9
QLKSGRDSTV [TMEM178A, Q8NBL3]	3.85
QKNKDREYYV [NRXN3, Q9HDB5]	below the threshold
HLSTRQGTCV [ATRNL1, Q5VV63]	4
GVHSNDHSVV [LPAR1, Q92633]	below the threshold
PKSNSSKEYV [CLDN7, O95471]	below the threshold
RGKNRRQSIF [CDK18, Q07002]	below the threshold
